Listed compounds paired with reported MEASURED FLUORESCENCE, RFU 10 sec
- Experiment Summary: Measurement of enzyme substrate degradation (100° C. for 15 minutes) by fluorescence
- Type: physicochemical
- Condition: pH 9 LB broth, no spores, read at 60° C., 10 sec
Response body: numeric value in RFU, unit text excluded.

Some solved cases for reference:
For the compound Cc1cc(=O)oc2cc(O[C@H]3O[C@H](CO)[C@@H](O)[C@H](O)[C@H]3O)c(F)cc12 [Example 1] , report MEASURED FLUORESCENCE, RFU 10 sec.
1449

For the compound Cc1cc(=O)oc2cc(O[C@H]3O[C@H](CO)[C@@H](O)[C@H](O)[C@H]3O)cc(F)c12 [Example 2] , report MEASURED FLUORESCENCE, RFU 10 sec.
675

For the compound Cc1cc(=O)oc2cc(O[C@H]3O[C@H](CO)[C@@H](O)[C@H](O)[C@H]3O)ccc12 [MUG] , report MEASURED FLUORESCENCE, RFU 10 sec.
654

Shift focus to the following entry.
For the compound Cc1cc(=O)oc2c(F)c(O[C@H]3O[C@H](CO)[C@@H](O)[C@H](O)[C@H]3O)c(F)cc12 [Comparative Example A] , report MEASURED FLUORESCENCE, RFU 10 sec.
18584

* * *

- Experiment Summary: Fluorescence of control wells containing enzyme substrate in LB broth without spores
- Format: physicochemical
- Condition: pH 8 LB broth, substrate 0.3 mg/mL, 60° C., +5 minutes
Measurement Label: mean fluorescence values detected for the control wells (RFU)
Response body: numeric value in RFU, unit text excluded.

Some solved cases for reference:
For the compound `Cc1cc(=O)oc2cc(O[C@H]3O[C@H](CO)[C@@H](O)[C@H](O)[C@H]3O)cc(F)c12` , report mean fluorescence values detected for the control wells.
573

For the compound `Cc1cc(=O)oc2cc(O[C@H]3O[C@H](CO)[C@@H](O)[C@H](O)[C@H]3O)c(F)cc12` , report mean fluorescence values detected for the control wells.
884

Shift focus to the following entry.
For the compound `Cc1cc(=O)oc2cc(O[C@H]3O[C@H](CO)[C@@H](O)[C@H](O)[C@H]3O)ccc12` , report mean fluorescence values detected for the control wells.
569

* * *

- Tested on: Geobacillus stearothermophilus spores (ATCC 7953)
- Experiment Summary: Fluorescence measurements using enzyme substrates and Geobacillus stearothermophilus spores in LB broth
- Format: cell-based
- Condition: pH 7 LB broth, substrate 0.3 mg/mL, 5×10^6 spores, 60° C., +30 min
Measurement Label: MEASURED FLUORESCENCE, RFU +30 min (RFU)
Response body: numeric value in RFU, unit text excluded.

For the compound `Cc1cc(=O)oc2cc(O[C@H]3O[C@H](CO)[C@@H](O)[C@H](O)[C@H]3O)ccc12` , report MEASURED FLUORESCENCE, RFU +30 min.
41643

Shift focus to the following entry.
For the compound `Cc1cc(=O)oc2cc(O[C@H]3O[C@H](CO)[C@@H](O)[C@H](O)[C@H]3O)cc(F)c12` , report MEASURED FLUORESCENCE, RFU +30 min.
58390

* * *

- Experiment Summary: Measurement of enzyme substrate degradation (100° C. for 15 minutes) by fluorescence
- Assay type: physicochemical
- Condition: pH 6 LB broth, no spores, read at 60° C., 10 sec
Measurement Label: MEASURED FLUORESCENCE, RFU 10 sec (RFU)
Response body: numeric value in RFU, unit text excluded.

Some solved cases for reference:
For the compound `Cc1cc(=O)oc2cc(O[C@H]3O[C@H](CO)[C@@H](O)[C@H](O)[C@H]3O)cc(F)c12` , report MEASURED FLUORESCENCE, RFU 10 sec.
933

For the compound `Cc1cc(=O)oc2cc(O[C@H]3O[C@H](CO)[C@@H](O)[C@H](O)[C@H]3O)ccc12` , report MEASURED FLUORESCENCE, RFU 10 sec.
967

Next:
For the compound `Cc1cc(=O)oc2cc(O[C@H]3O[C@H](CO)[C@@H](O)[C@H](O)[C@H]3O)c(F)cc12` , report MEASURED FLUORESCENCE, RFU 10 sec.
1108

* * *

Listed compounds paired with reported MEASURED FLUORESCENCE, RFU +10 min
- Experiment Summary: Measurement of enzyme substrate degradation (100° C. for 15 minutes) by fluorescence
- Assay type: physicochemical
- Condition: pH 6 LB broth, no spores, read at 60° C., +10 min
Response body: numeric value in RFU, unit text excluded.

Some solved cases for reference:
For the compound `Cc1cc(=O)oc2cc(O[C@H]3O[C@H](CO)[C@@H](O)[C@H](O)[C@H]3O)ccc12` , report MEASURED FLUORESCENCE, RFU +10 min.
852

For the compound `Cc1cc(=O)oc2cc(O[C@H]3O[C@H](CO)[C@@H](O)[C@H](O)[C@H]3O)cc(F)c12` , report MEASURED FLUORESCENCE, RFU +10 min.
805

Shift focus to the following entry.
For the compound `Cc1cc(=O)oc2cc(O[C@H]3O[C@H](CO)[C@@H](O)[C@H](O)[C@H]3O)c(F)cc12` , report MEASURED FLUORESCENCE, RFU +10 min.
1040

* * *

Listed molecules paired with reported mean fluorescence values detected for the control wells
- Experiment Summary: Fluorescence of control wells containing enzyme substrate in LB broth without spores
- Format: physicochemical
- Condition: pH 7 LB broth, substrate 0.3 mg/mL, 60° C., +5 minutes
Response body: numeric value in RFU, unit text excluded.

Some solved cases for reference:
For the molecule `Cc1cc(=O)oc2cc(O[C@H]3O[C@H](CO)[C@@H](O)[C@H](O)[C@H]3O)ccc12` , report mean fluorescence values detected for the control wells.
670

For the molecule `Cc1cc(=O)oc2cc(O[C@H]3O[C@H](CO)[C@@H](O)[C@H](O)[C@H]3O)cc(F)c12` , report mean fluorescence values detected for the control wells.
679

Next:
For the molecule `Cc1cc(=O)oc2cc(O[C@H]3O[C@H](CO)[C@@H](O)[C@H](O)[C@H]3O)c(F)cc12` , report mean fluorescence values detected for the control wells.
936

* * *

- Experiment Summary: Fluorescence of control wells containing enzyme substrate in LB broth without spores
- Assay type: physicochemical
- Condition: pH 6 LB broth, substrate 0.3 mg/mL, 60° C., +5 minutes
Measurement Label: mean fluorescence values detected for the control wells (RFU)
Response body: numeric value in RFU, unit text excluded.

Some solved cases for reference:
For the compound Cc1cc(=O)oc2cc(O[C@H]3O[C@H](CO)[C@@H](O)[C@H](O)[C@H]3O)cc(F)c12 [Example 2] , report mean fluorescence values detected for the control wells.
784

For the compound Cc1cc(=O)oc2cc(O[C@H]3O[C@H](CO)[C@@H](O)[C@H](O)[C@H]3O)ccc12 [MUG] , report mean fluorescence values detected for the control wells.
802

Shift focus to the following entry.
For the compound Cc1cc(=O)oc2cc(O[C@H]3O[C@H](CO)[C@@H](O)[C@H](O)[C@H]3O)c(F)cc12 [Example 1] , report mean fluorescence values detected for the control wells.
920

* * *

Listed compounds paired with reported mean fluorescence values detected for the control wells
- Experiment Summary: Fluorescence of control wells containing enzyme substrate in LB broth without spores
- Format: physicochemical
- Condition: pH 6 LB broth, substrate 0.3 mg/mL, 60° C., +10 minutes
Response body: numeric value in RFU, unit text excluded.

Some solved cases for reference:
For the compound `Cc1cc(=O)oc2cc(O[C@H]3O[C@H](CO)[C@@H](O)[C@H](O)[C@H]3O)c(F)cc12` , report mean fluorescence values detected for the control wells.
870

For the compound `Cc1cc(=O)oc2cc(O[C@H]3O[C@H](CO)[C@@H](O)[C@H](O)[C@H]3O)cc(F)c12` , report mean fluorescence values detected for the control wells.
738

Shift focus to the following entry.
For the compound `Cc1cc(=O)oc2cc(O[C@H]3O[C@H](CO)[C@@H](O)[C@H](O)[C@H]3O)ccc12` , report mean fluorescence values detected for the control wells.
756

* * *

- Tested on: Geobacillus stearothermophilus spores (ATCC 7953)
- Experiment Summary: Fluorescence measurements using enzyme substrates and Geobacillus stearothermophilus spores in LB broth
- Assay type: cell-based
- Condition: pH 8 LB broth, substrate 0.3 mg/mL, 5×10^6 spores, 60° C., +10 min
Listed molecules paired with reported MEASURED FLUORESCENCE, RFU +10 min
Response body: numeric value in RFU, unit text excluded.

Some solved cases for reference:
Fill: MEASURED FLUORESCENCE, RFU +10 min (Geobacillus stearothermophilus spores (ATCC 7953)) for this molecule `Cc1cc(=O)oc2cc(O[C@H]3O[C@H](CO)[C@@H](O)[C@H](O)[C@H]3O)ccc12`
21171

Fill: MEASURED FLUORESCENCE, RFU +10 min (Geobacillus stearothermophilus spores (ATCC 7953)) for this molecule `Cc1cc(=O)oc2cc(O[C@H]3O[C@H](CO)[C@@H](O)[C@H](O)[C@H]3O)cc(F)c12`
26273

Fill: MEASURED FLUORESCENCE, RFU +10 min (Geobacillus stearothermophilus spores (ATCC 7953)) for this molecule `Cc1cc(=O)oc2c(F)c(O[C@H]3O[C@H](CO)[C@@H](O)[C@H](O)[C@H]3O)c(F)cc12`
77765

Shift focus to the following entry.
Fill: MEASURED FLUORESCENCE, RFU +10 min (Geobacillus stearothermophilus spores (ATCC 7953)) for this molecule `Cc1cc(=O)oc2cc(O[C@H]3O[C@H](CO)[C@@H](O)[C@H](O)[C@H]3O)c(F)cc12`
61862
